assayInfo: Pharmacokinetic interaction study, oral administration alone or in combination in rats
Type: in vivo, rat
particulars: rat, plasma, po, 10 mg/kg, LUME 10 mg/kg oral alone (control), rats n=5, mean ± SD
quantityMeasured: AUC(0-t) (ng·h/mL)
Dear colleague, please return just the value in ng·h/mL, with no unit written.

// recorded AUC(0-t) for CCCCN(CCCC)CC(O)c1cc(Cl)cc2c1-c1ccc(Cl)cc1/C2=C/c1ccc(Cl)cc1 (stereo not shown) : 16500

###

assayInfo: Pharmacokinetic interaction study, oral administration alone or in combination in rats
Type: in vivo, rat
particulars: rat, plasma, po, 10 mg/kg, LUME 10 mg/kg oral co-administered with 99–411 70 mg/kg, rats
quantityMeasured: Vd/F

For record CCCCN(CCCC)CC(O)c1cc(Cl)cc2c1-c1ccc(Cl)cc1/C2=C/c1ccc(Cl)cc1 (stereo not shown) the listed Vd/F is 46.4 L/kg

###

assayInfo: Pharmacokinetic interaction study, oral administration alone or in combination in rats
Type: in vivo, rat
particulars: rat, plasma, po, PPQ 50 mg/kg oral co-administered with 99–411 70 mg/kg, rats
quantityMeasured: Cmax (ng/mL)
Just the number in ng/mL, nothing appended.

Data point: Clc1ccc2c(N3CCN(CCCN4CCN(c5ccnc6cc(Cl)ccc56)CC4)CC3)ccnc2c1 ; Cmax = 540

###

assayInfo: In situ single-pass intestinal perfusion permeability study
Format: in vivo
particulars: male, SD, rat, other: single-pass perfusion through the jejunal lumen, lumefantrine co-perfused with 99–411, 10 μM, rat jejunum; read-out: effective permeability
quantityMeasured: Papp at 120 min, 10 μM (×10⁻⁶ cm/s)
Quick reminder: number only, in ×10⁻⁶ cm/s, skip the unit.

Lab book: Papp at 120 min, 10 μM of CCCCN(CCCC)CC(O)c1cc(Cl)cc2c1-c1ccc(Cl)cc1/C2=C/c1ccc(Cl)cc1 (stereo not shown) [LUME, lumefantrine] noted as 46.8

###

assayInfo: Pharmacokinetic interaction study, oral administration alone or in combination in rats
Assay type: in vivo, rat
particulars: rat, plasma, po, 10 mg/kg, LUME 10 mg/kg oral alone (control), rats
quantityMeasured: CL/F (mL/min/kg)
Return type: number; implicit unit mL/min/kg.

Record CCCCN(CCCC)CC(O)c1cc(Cl)cc2c1-c1ccc(Cl)cc1/C2=C/c1ccc(Cl)cc1 (stereo not shown) , field CL/F: 9.83

###

assayInfo: Pharmacokinetic interaction study, oral administration alone or in combination in rats
Type: in vivo, rat
particulars: rat, plasma, po, 50 mg/kg, PPQ 50 mg/kg oral alone (control), rats
Description: Rats were divided into five groups (n = 5, each); three control groups (LUME 10 mg/kg, oral, suspension in 0.25% Sodium CMC; PPQ 50 mg/kg, oral, solution in triple distilled water; and 99–411 70 mg/kg, oral, suspension in 0.25% Sodium CMC) and two co-administration group (70 mg/kg of oral 99–411 & 10 mg/kg of oral LUME; and 70 mg/kg of oral 99–411 & 50 mg/kg of oral PPQ). […] The relative bioavailability (RB%) was calculated according to equation 1 as follows: […]
quantityMeasured: Cmax
State the value with its unit after it.

Quick note, Cmax for Clc1ccc2c(N3CCN(CCCN4CCN(c5ccnc6cc(Cl)ccc56)CC4)CC3)ccnc2c1 landed at 890 ng/mL

###

assayInfo: Pharmacokinetic interaction study, oral administration alone or in combination in rats
Format: in vivo, rat
particulars: rat, plasma, po, 10 mg/kg, LUME 10 mg/kg oral co-administered with 99–411 70 mg/kg, rats
quantityMeasured: AUC(0-inf) (ng·h/mL)
# output: bare number, implied unit ng·h/mL

// AUC(0-inf) value for CCCCN(CCCC)CC(O)c1cc(Cl)cc2c1-c1ccc(Cl)cc1/C2=C/c1ccc(Cl)cc1 (stereo not shown) [LUME, lumefantrine] : 16500

###

assayInfo: Pharmacokinetic interaction study, oral administration alone or in combination in rats
Type: in vivo, rat
particulars: rat, plasma, po, PPQ 50 mg/kg oral co-administered with 99–411 70 mg/kg, rats
quantityMeasured: AUC(0-inf) (ng·h/mL)
Number only, in ng·h/mL; omit the unit.

Form: molecule = Clc1ccc2c(N3CCN(CCCN4CCN(c5ccnc6cc(Cl)ccc56)CC4)CC3)ccnc2c1 [PPQ, piperaquine] ; AUC(0-inf) = 19400

###

assayInfo: Pharmacokinetic interaction study, oral administration alone or in combination in rats
Type: in vivo, rat
particulars: rat, plasma, po, PPQ 50 mg/kg oral co-administered with 99–411 70 mg/kg, rats
quantityMeasured: half-life (h)
Give your result in h as a bare value.

What the record says about Clc1ccc2c(N3CCN(CCCN4CCN(c5ccnc6cc(Cl)ccc56)CC4)CC3)ccnc2c1 : half-life is 41.7

###

assayInfo: Pharmacokinetic interaction study, oral administration alone or in combination in rats
Assay type: in vivo, rat
particulars: rat, plasma, po, 50 mg/kg, PPQ 50 mg/kg oral alone (control), rats
quantityMeasured: AUC(0-inf) (ng·h/mL)
Give the quantity in ng·h/mL, number only.

Reported AUC(0-inf) of Clc1ccc2c(N3CCN(CCCN4CCN(c5ccnc6cc(Cl)ccc56)CC4)CC3)ccnc2c1 : 31500

###

assayInfo: Pharmacokinetic interaction study, oral administration alone or in combination in rats
Type: in vivo, rat
particulars: rat, plasma, po, 10 mg/kg, LUME 10 mg/kg oral alone (control), rats
quantityMeasured: Vd/F (L/kg)
All answers are understood in L/kg, so give the number only.

Note to self: Vd/F recorded for CCCCN(CCCC)CC(O)c1cc(Cl)cc2c1-c1ccc(Cl)cc1/C2=C/c1ccc(Cl)cc1 (stereo not shown) was 39.4
